Biological target: T1, murine IL-11 (mouse, UniProt P47873 22-199)
T1 sequence: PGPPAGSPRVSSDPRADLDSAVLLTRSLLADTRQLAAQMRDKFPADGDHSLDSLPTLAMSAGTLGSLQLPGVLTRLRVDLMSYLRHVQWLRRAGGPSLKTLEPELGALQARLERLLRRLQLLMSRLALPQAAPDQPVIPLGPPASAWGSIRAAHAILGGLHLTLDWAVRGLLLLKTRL
Experiment: cell-based or functional assay
The entries below are paired with their reported RGA IC50.
State just the number; it will be interpreted in nM.

The following binders have reported results that may help.
Input: Which RGA IC50 value belongs to TPP-29397 (antibody, human IgG1, V domains shown) VH: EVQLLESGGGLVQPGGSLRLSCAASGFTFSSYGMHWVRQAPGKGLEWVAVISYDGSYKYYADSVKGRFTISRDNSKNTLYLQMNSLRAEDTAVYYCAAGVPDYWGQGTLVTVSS VL: QSVLTQPPSASGTPGQRVTISCSGSSSNIWSGYDVHWYQQLPGTAPKLLIYSNEERPSGVPDRFSGSKSGTSASLAISGLRSEDEADYYCAAWDSSLYGPVFGGGTKLTVL ?
Output: 0.31

Input: Which RGA IC50 value belongs to TPP-29394 (antibody, human IgG1, V domains shown) VH: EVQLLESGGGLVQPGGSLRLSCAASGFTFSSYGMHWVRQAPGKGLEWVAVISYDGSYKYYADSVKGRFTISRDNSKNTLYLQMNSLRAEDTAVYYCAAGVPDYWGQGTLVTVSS VL: QSVLTQPPSASGTPGQRVTISCSGSSSNIGSDYDVHWYQQLPGTAPKLLIYSNNERPSGVPDRFSGSKSGTSASLAISGLRSEDEADYYCAAWDFSLYGPVFGGGTKLTVL ?
Output: 0.48

Next item in the queue.
Input: Which RGA IC50 value belongs to TPP-29396 (antibody, human IgG1, V domains shown) VH: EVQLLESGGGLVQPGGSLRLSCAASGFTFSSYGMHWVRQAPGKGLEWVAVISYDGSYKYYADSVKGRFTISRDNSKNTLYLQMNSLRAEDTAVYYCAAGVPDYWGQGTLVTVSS VL: QSVLTQPPSASGTPGQRVTISCSGSSSNIWSDYDVHWYQQLPGTAPKLLIYSNEERPSGVPDRFSGSKSGTSASLAISGLRSEDEADYYCAAWDFSLYGPVFGGGTKLTVL ?
Output: 0.39

Hello, the source for this data is patent US20240317847A1, in case you need it.
